- measured-target: T1, Anti-CD28 Fab (SEQ ID NOs: 696, 697)
- T1 construct: Biotinylated and captured on neutravidin coated plates in the phage ELISA
- T1 sequence (VH, as listed by the source, chain 1 of 2): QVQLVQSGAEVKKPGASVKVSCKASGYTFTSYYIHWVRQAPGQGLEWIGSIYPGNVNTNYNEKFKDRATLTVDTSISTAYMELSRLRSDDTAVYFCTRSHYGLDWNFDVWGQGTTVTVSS
- T1 sequence (VL, as listed by the source, chain 2 of 2): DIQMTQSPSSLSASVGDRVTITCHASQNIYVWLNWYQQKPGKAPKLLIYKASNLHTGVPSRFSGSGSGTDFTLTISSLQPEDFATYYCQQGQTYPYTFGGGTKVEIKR
- assay-summary: phage ELISA on captured anti-CD28 Fab, wells first incubated with CD28 antigen (competitor)
Listed next: entries and their corresponding Anti-CD28 Fab signal in the presence of CD28 (phage binding ELISA).
quantity-kind: Anti-CD28 Fab signal in the presence of CD28 (phage binding ELISA)

| binder | test-value |
| --- | --- |
| YCEGHSTEYIQKCL [Phage-1144] | 0.09 |
| YCAGHLDIYLAKCL [Phage-1151] | 0.07 |
| YCVGHYPEYMEKCL [Phage-1147] | 0.07 |
| YCDGHSMMYMQKCL [Phage-1145] | 0.06 |
| YCHGHLPQYMSKCM [Phage-1150] | 0.06 |
| YCEGHIGIYMSKCL [Phage-1143] | 0.07 |
| YCAGHAPEYISKCL [Phage-1152] | 0.07 |
| YCDGHRPEYMSKCL [Phage-1155] | 0.07 |
| YCEGHAAEYLWKCL [Phage-1154] | 0.09 |
| YCEGHSAEHMPKCL [Phage-1146] | 0.09 |
| YCDGHSQEYMSKCL [Phage-1149] | 0.06 |
| YCDGHSWEYLGKCL [Phage-1153] | 0.05 |
| YCDGHEARYMQKCL [Phage-1148] | 0.07 |
